These data points were gathered from paper PMC2962730.

# systemName: hVAChT F231A (Homo sapiens, UniProt Q16572, F231A)
# Sequence (Q16572 1-532 F231A): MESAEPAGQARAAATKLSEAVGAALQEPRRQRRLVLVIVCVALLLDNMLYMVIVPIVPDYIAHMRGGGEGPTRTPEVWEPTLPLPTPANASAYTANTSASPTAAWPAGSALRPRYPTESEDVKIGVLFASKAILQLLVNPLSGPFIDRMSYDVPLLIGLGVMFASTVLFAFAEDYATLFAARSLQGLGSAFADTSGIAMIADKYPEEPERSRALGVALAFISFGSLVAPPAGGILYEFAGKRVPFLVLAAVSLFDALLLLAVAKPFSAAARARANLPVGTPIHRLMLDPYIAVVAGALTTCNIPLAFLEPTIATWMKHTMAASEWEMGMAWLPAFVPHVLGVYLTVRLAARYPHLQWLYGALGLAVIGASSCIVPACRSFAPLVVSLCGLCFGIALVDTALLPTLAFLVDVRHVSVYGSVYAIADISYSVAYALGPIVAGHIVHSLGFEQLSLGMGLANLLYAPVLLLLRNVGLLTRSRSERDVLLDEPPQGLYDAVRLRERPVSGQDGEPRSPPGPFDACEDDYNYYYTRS
# assayRemarks: ACh equilibrium binding by competition against [3H]vesamicol
quantity: pKd
Give only the number. pKd is defined as minus log10 of concentration in molar units.

stdin: I would be grateful if you could share the reported pKd for CC(=O)OCC[N+](C)(C)C [ACh, acetylcholine] .
stdout: 2.24

----------
# systemName: hVAChT W325H (Homo sapiens, UniProt Q16572, W325H)
# assayRemarks: ACh equilibrium binding by competition against [3H]vesamicol
quantity: pKd
Note: pKd values are expressed as the negative base-10 logarithm of concentration in M.

stdin: What value of pKd has been recorded for this entry: CC(=O)OCC[N+](C)(C)C [ACh, acetylcholine]
stdout: 2.26

----------
# systemName: hVAChT M316A (Homo sapiens, UniProt Q16572, M316A)
# assayRemarks: ACh equilibrium binding by competition against [3H]vesamicol
quantity: pKd
pKd field: float, defined as -log10 of concentration (mol/L).

stdin: Look at this molecule and give its reported pKd. "CC(=O)OCC[N+](C)(C)C"
stdout: 2.08

----------
# systemName: hVAChT Y60W (Homo sapiens, UniProt Q16572, Y60W)
# assayRemarks: ACh equilibrium binding by competition against [3H]vesamicol
quantity: Kd (mM)
All answers are understood in mM, so give the number only.

stdin: Give its Kd value. Item: CC(=O)OCC[N+](C)(C)C [ACh, acetylcholine]
stdout: 4.5

----------
# systemName: hVAChT A321F (Homo sapiens, UniProt Q16572, A321F)
# Sequence (Q16572 1-532 A321F): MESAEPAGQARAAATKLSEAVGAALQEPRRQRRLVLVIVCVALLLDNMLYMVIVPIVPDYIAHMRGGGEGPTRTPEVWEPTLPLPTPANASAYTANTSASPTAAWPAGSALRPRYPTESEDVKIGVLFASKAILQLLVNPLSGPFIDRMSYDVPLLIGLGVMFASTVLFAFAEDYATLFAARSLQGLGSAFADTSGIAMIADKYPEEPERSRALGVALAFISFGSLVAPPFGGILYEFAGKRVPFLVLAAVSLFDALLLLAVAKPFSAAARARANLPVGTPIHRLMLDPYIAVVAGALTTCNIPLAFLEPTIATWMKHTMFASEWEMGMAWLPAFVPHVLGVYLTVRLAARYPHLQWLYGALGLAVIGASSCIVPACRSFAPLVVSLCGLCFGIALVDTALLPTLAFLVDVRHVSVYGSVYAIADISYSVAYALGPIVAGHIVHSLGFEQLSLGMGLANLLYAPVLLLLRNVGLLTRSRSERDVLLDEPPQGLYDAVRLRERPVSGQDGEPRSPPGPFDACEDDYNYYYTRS
# assayRemarks: ACh equilibrium binding by competition against [3H]vesamicol
quantity: Kd (mM)
Kindly provide the numeric value in mM only, without the unit symbol.

stdin: I'd like to know its Kd. The compound in question is "CC(=O)OCC[N+](C)(C)C"
stdout: 15
